Biological target: interphotoreceptor retinoid-binding protein (IRBP) (Bos taurus, UniProt P12661)
Sequence (P12661 23-1286): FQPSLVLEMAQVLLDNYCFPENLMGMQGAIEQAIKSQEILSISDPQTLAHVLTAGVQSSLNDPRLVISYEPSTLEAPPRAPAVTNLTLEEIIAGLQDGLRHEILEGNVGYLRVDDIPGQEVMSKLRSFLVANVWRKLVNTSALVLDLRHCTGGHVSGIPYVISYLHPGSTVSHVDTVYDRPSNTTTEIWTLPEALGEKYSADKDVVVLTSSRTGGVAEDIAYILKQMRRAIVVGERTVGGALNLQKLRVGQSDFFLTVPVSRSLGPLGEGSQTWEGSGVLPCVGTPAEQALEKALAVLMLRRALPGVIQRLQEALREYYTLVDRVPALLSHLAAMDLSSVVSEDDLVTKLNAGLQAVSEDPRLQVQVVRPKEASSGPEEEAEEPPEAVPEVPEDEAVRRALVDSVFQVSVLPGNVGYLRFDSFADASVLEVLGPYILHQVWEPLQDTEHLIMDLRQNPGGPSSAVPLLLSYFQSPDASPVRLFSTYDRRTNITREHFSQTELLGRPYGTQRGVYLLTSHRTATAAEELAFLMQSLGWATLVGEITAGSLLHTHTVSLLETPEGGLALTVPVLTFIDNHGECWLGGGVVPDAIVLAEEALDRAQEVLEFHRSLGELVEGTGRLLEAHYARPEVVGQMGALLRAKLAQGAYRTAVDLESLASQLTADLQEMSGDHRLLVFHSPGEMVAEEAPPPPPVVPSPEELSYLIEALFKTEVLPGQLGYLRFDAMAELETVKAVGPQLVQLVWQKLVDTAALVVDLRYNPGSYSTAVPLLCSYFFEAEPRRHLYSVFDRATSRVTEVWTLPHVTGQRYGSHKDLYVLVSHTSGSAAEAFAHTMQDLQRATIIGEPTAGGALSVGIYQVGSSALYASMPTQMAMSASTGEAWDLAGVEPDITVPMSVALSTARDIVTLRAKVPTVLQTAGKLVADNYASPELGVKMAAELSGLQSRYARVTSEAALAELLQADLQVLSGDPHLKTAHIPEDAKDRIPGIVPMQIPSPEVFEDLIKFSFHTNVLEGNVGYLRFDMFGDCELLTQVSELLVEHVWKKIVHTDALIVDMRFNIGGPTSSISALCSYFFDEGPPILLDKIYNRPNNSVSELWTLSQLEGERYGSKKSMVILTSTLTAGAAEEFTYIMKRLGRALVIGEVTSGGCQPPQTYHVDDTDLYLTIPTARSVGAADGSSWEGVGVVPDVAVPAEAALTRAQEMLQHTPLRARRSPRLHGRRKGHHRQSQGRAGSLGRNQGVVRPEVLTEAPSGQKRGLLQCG
Assay: Surface plasmon resonance
Parameters: species or system bovine
Conditions: SPR, 25°C, n=3; ligand:IRBP binding stoichiometry
Listed here are molecules together with their documented Stoichiometry (No. of sites).
The answer should be a number; do not append a unit.

Request: What Stoichiometry (No. of sites) value was documented for this molecule, CCCCC/C=C\C/C=C\CCCCCCCC(=O)O ?
Response: 3.7

---

Biological target: interphotoreceptor retinoid-binding protein (IRBP) (Bos taurus)
Experiment: Surface plasmon resonance
Set-up: species or system bovine
Details: SPR, 25°C, n=3; ligand:IRBP binding stoichiometry
Listed here are molecules together with their documented Stoichiometry (No. of sites).

# example entries with known answers
CC1=C(/C=C/C(C)=C/C=C/C(C)=C/C=O)C(C)(C)CCC1 [11-cis-retinal]    3.1
CC/C=C\C/C=C\C/C=C\C/C=C\C/C=C\C/C=C\CCC(=O)O    3.4
CC1=C(/C=C/C(C)=C/C=C/C(C)=C/C=O)C(C)(C)CCC1 [all-trans-retinal]    3.2

Request: What Stoichiometry (No. of sites) value was documented for this molecule, CC1=C(/C=C/C(C)=C/C=C/C(C)=C/CO)C(C)(C)CCC1 [all-trans-retinol] ?
Response: 3.5

Request: What Stoichiometry (No. of sites) value was documented for this molecule, CCCCCCCC/C=C\CCCCCCCC(=O)O ?
Response: 3.6

Request: What Stoichiometry (No. of sites) value was documented for this molecule, CC1=C[C@H](O)CC(C)(C)[C@H]1/C=C/C(C)=C/C=C/C(C)=C/C=C/C=C(C)/C=C/C=C(C)/C=C/C1=C(C)C[C@@H](O)CC1(C)C ?
Response: 3.4
